Documented TGI across a set of compounds
# Test system: HOP-92 NSCLC
# Procedure details: NCI tumour cell line growth inhibition, 48 h
A number alone suffices; assume µM.

Recorded TGI, per entry:
Mol: Clc1ccc(-c2nn3c(COc4ccc(OCc5nnc6sc(-c7ccc(Cl)cc7)nn56)c(Cl)c4)nnc3s2)cc1
Readout unit: µM
TGI: 37.8
//
Mol: O=c1c2ccccc2n2nnc3ccc(NCCNCCO)c1c32
Readout unit: µM
TGI: 6.18

Here is another compound to look at.
# TGI lookup, item c1ccc2c(c1)ccc1cc3cc(NCCCCNc4ccc5nc6c(ccc7ccccc76)cc5c4)ccc3nc12
4.09

* * *

# Test system: M14 melanoma
# Procedure details: NCI tumour cell line growth inhibition, 48 h
Catalogue of molecules with associated TGI

Example entries begin here.
Molecule: Clc1ccc(/C=C/c2csnn2)cc1
Endpoint name: TGI
Recorded measurement: > 100 µM
//
Molecule: CC(=O)Nc1ccc2c(c1)[nH]c(=O)c1cc(Cl)ccc12
Endpoint name: TGI
Recorded measurement: > 100 µM
//
Molecule: Cc1cc(S(=O)(=O)NC2=NCc3c(F)cccc3N2)c(S)cc1Cl
Endpoint name: TGI
Recorded measurement: > 100 µM
//
Molecule: CCOC(=O)C(NC(=O)c1ccccc1)(Nc1ccc(S(=O)(=O)Nc2cc(C)on2)cc1)C(F)(F)F (stereo not given)
Endpoint name: TGI
Recorded measurement: > 100 µM

Data request, read-out TGI, for COc1cc(/C=C2\C(=O)N(c3ccc(Cl)cc3)C(c3ccccc3)S2(=O)=O)cc(OC)c1OC (stereo not given)
> 61.6 µM

* * *

# Test system: OVCAR-3 ovarian
# Procedure details: NCI tumour cell line growth inhibition, 48 h
Endpoint name: TGI

Compound: Clc1ccc(-c2nn3c(COc4ccc(OCc5nnc6sc(-c7ccc(Cl)cc7)nn56)c(Cl)c4)nnc3s2)cc1
TGI: > 100 µM

Compound: CCOc1ccc(Nc2nc(N)nc(N)c2N=O)cc1
TGI: > 100 µM

Requested read-out: TGI. Entry: Clc1cc(Cl)cc(Nc2ccc3c(OCCCN4CCOCC4)cccc3n2)c1
9.63 µM

Field entry: COC(=O)c1c2c(cc3c1CC1(Cc4cc5c(cc4C1)CCCC5)C3)CCCC2
> 100 µM

Now consider N#CC(c1cc(Cl)ncn1)c1nc2cc(C(F)(F)F)ccc2s1 (stereo unspecified) .
17.4 µM

Same lookup for CCOC(=O)C(NC(=O)c1ccccc1)(Nc1ccc(S(=O)(=O)Nc2cc(C)on2)cc1)C(F)(F)F (stereo unspecified) , please.
> 100 µM

Next compound up: CCOC1OC(C)(C=C(C#N)C#N)CCC1C (stereo unspecified)
> 71.6 µM

Moving on to the next compound: NC(=O)N1N=C2c3ccccc3OC[C@H]2[C@@H]1c1ccccc1
> 76.3 µM

* * *

# System: SNB-19 CNS
# Procedure details: NCI tumour cell line growth inhibition, 48 h
Endpoint name: GI50

These recorded examples may help you get a feel for the data.
Mol: COc1ccccc1CNCCCN1C(=O)c2ccc3c4c(ccc(c24)C1=O)C(=O)N(CCCNCCCCN)C3=O
GI50: 0.51 µM

Mol: C#CCN(CCCOc1ccc(Cl)cc1Cl)CCCSC(=O)CCCCCN1/C(=C\C=C2/CCCC(/C=C/C3=[N+](CCCCCC(=O)[O-])c4ccccc4C3(C)C)=C2Cl)C(C)(C)c2ccccc21
GI50: 1.12 µM

Mol: COc1ccc(-c2nc3sccn3c2/C=C/C(=O)c2cc(OC)c(OC)c(OC)c2)cc1
GI50: 3.32 µM

Mol: O=C(NCCNC1=CC(=O)c2nc3ccccc3c3ccnc1c23)c1cnccn1
GI50: 42.2 µM

What value of GI50 has been recorded for this entry: CNc1ccc(CSc2ccc(C)cc2)cc1
38.6 µM

Record: O=[N+]([O-])/C(=C/C=C/c1ccccc1)c1ccccc1
3.33 µM

Next record, please: Nc1nc2c([nH]1)c1[nH]c3ccccc3c1c1[nH]c3ccccc3c21
12.8 µM

And the next one, Cc1ncc([N+](=O)[O-])n1CCOc1ccc(C(=O)/C=C/c2ccc(C(F)(F)F)cc2)cc1 ?
3.34 µM

// same read-out, input: CN1CCC(C(=O)Nc2n[nH]c3nnc(-c4ccccc4)cc23)CC1
> 25 µM

Same again, this time with NCC[PH+](c1ccccc1)c1ccccc1.NCC[PH+](c1ccccc1)c1ccccc1.[Cl-].[Pt+4]
46.1 µM

Same read-out for COC(=O)c1sc(=S)c2sc(C(=O)OC)c(C(=O)OC)c2c1C(=O)OC ?
86.7 µM

* * *

# System: HCT-15 colon
# Procedure details: NCI tumour cell line growth inhibition, 48 h
Here, each record is paired with measured GI50 data.

Please review the entries below; each comes with its answer.
Compound: O=[N+]([O-])/C(=C/C=C/c1ccccc1)c1ccccc1
Endpoint name: GI50
Recorded measurement: 1860 nM
//
Compound: COc1cc(-c2ccc[nH]2)[nH]c1/C=C1\N=C(C)C(C(=O)NC(C)C)=C1C
Endpoint name: GI50
Recorded measurement: 2080 nM
//
Compound: CC(C)(C)OC(=O)CC(S(=O)(=O)c1ccccc1)S(=O)(=O)c1ccccc1
Endpoint name: GI50
Recorded measurement: 1870 nM

Fill in the blank: the reported GI50 of c1ccc(-c2nc3ccccc3[nH]2)c(OCCCCCOc2ccccc2-c2nc3ccccc3[nH]2)c1 is ____.
4640 nM

Likewise for COc1ccc(-c2nn(-c3cccc(Cl)c3)cc2-c2c(C#N)c(=O)n3[nH]c(-c4ccc(C)o4)nc3c2C#N)cc1 ?
16600 nM

Same lookup for COc1ccc2cc1Oc1ccc(cc1)CC1c3c(cc(OC)c4c3Oc3cc5c(cc3O4)CCNC5C2)CCN1C (stereo not given) , please.
1860 nM

Now this one: COc1cc(/C=C/C(=O)/C=C/c2ccc(-n3ccnc3)cc2)ccc1O
2480 nM

Another compound to check: CN1CCC(C(=O)Nc2n[nH]c3nnc(-c4ccccc4)cc23)CC1
> 25000 nM

Can you handle COc1ccc([C@H]2c3[nH]c4ccccc4c3C[C@H]3C(=O)N(CCCCCCC(=O)NO)CC(=O)N23)cc1 next?
9050 nM

Do the same for Nc1nc2c([nH]1)c1[nH]c3ccccc3c1c1[nH]c3ccccc3c21 please
13600 nM

* * *

# Test system: M14 melanoma
# Procedure details: NCI tumour cell line growth inhibition, 48 h
Listed below: TGI values for each entry.
Respond with the bare value in µM.

Value lookup for TGI; key = Clc1cc(Cl)cc(Nc2ccc3c(OCCCN4CCOCC4)cccc3n2)c1
4

Try COc1ccc(N=C2C(=O)Nc3ccc(Br)cc32)cc1 next.
37.2

Then COc1cc([C@H]2c3cc4c(cc3[C@H](NCc3ccc(F)cc3)C3COC(=O)[C@H]32)OCO4)cc(OC)c1O (stereo partly specified) ?
13.6

Again, but for COc1ccc(-c2nn(-c3cccc(Cl)c3)cc2-c2c(C#N)c(=O)n3[nH]c(-c4ccc(C)o4)nc3c2C#N)cc1
22.4

Consider next the compound OCCN1CCCN(CCCN2c3ccccc3Sc3ccc(C(F)(F)F)cc32)CC1 in the same way.
3.9

Could you do the same for COc1ccc2c3c(c4cc(OC)c(OC)cc4c2c1)CN1CCC[C@H]1[C@@H]3O , please?
1.3

O=C(Cc1csc2nc(-c3ccc(Br)cc3)cn12)N/N=C/c1ccccc1O ?
7.77

Try this compound too: CC1(C)N=C(N)N=C(N)N1c1ccc(CCCCCCc2ccc(S(=O)(=O)F)cc2)cc1
28.7

* * *

# Test system: SK-MEL-5 melanoma
# Procedure details: NCI tumour cell line growth inhibition, 48 h
Where a SMILES comes first, the peptide text is derived from it. The star is where a group is joined. Fmoc = O=C(OCC1c2ccccc2-c2ccccc21)*; OBn = c1ccc(CO*)cc1; tBu = CC(C)(C)*
Endpoint name: TGI

Compound: C[C@]12CC[C@H]3[C@@H](CCC4=C/C(=N/OCCN5CCCCC5)CC[C@@]43C)[C@@H]1CC[C@@H]2O
TGI: 26.4 µM

Compound: Cc1nc2sc(C(=O)Nc3cccc(Cl)c3)c(N)c2cc1C(O)c1ccccc1 (centres undefined)
TGI: 2.2 µM

Request - read-out TGI | tested on SK-MEL-5 melanoma | compound CC(=O)N1CN2C(=O)CCC2c2cc(C)ccc21 (centres undefined)
> 100 µM

Same lookup for CC(OC(C)(C)C)C(NC(=O)OCC1c2ccccc2-c2ccccc21)C(=O)NC(Cc1ccccc1)C(=O)OCc1ccccc1 (centres undefined) (Fmoc-Thr(tBu)-Phe-OBn; configuration not given here) , please.
> 100 µM

Now the compound Nc1ccc2c3c1cccc3c(=O)n1c3ccc(Cc4ccc5c(c4)nc4c6ccc(N)c7cccc(c(=O)n54)c76)cc3nc21
> 100 µM

Then this compound: CN(CC(=O)O)c1ncc2c(n1)-c1ccccc1CC2
> 100 µM

Same for COc1cc(-c2cc(OC)c(OC)c3ccc(Br)cc23)c2cc(Br)ccc2c1OC
> 100 µM

// same read-out, input: CC(C)OC(=O)c1cc(NC(=S)OC(C)C)ccc1Cl
33.1 µM

Next up: O=C1Cc2c([nH]c3ccccc23)-c2cc(Br)ccc2N1
> 100 µM

Please give the result for CCOC(=O)CCC(C(=O)OCC)n1nnc2cc(Nc3c(C)[n+]([O-])c4cc(Cl)ccc4[n+]3[O-])ccc21 (centres undefined) too.
> 100 µM

Follow-up item: CC(=O)Nc1ccc2c(c1)[nH]c(=O)c1cc(Cl)ccc12
> 100 µM

Also Cn1c(COC(=O)NC2CCCCC2)c(COC(=O)NC2CCCCC2)c2ccc3ccccc3c21 , if possible.
> 100 µM

Try this compound too: CC(C)(C)OC(=O)CC(S(=O)(=O)c1ccccc1)S(=O)(=O)c1ccccc1
28.8 µM

Also COc1ccc2cc1Oc1ccc(cc1)CC1c3c(cc(OC)c4c3Oc3cc5c(cc3O4)CCNC5C2)CCN1C (centres undefined) , if possible.
3.98 µM

Try the compound Cc1cn([C@H]2CN(O)C[C@@H](CO)O2)c(=O)[nH]c1=O
> 100 µM

Try the compound CCOC(=O)/C=C(/OCC)[C@@H]1C(C(=O)c2ccc(Cl)cc2)[C@@H]1/C(=C\C(=O)OCC)OCC (some centres undefined)
> 59.9 µM
